- System: Falciformispora senegalensis CBS197.79
- METHOD DESCRIPTION: growth relative to untreated control; higher = less inhibition, active = 20 or less
- RUN PARAMETERS: 100 µM
OBSERVATION TYPE: growth (%)
The reply should be a number in %, with the unit left off.

[ask] What measured growth is associated with "CCCOc1ccc(C(F)(F)F)cc1NC(=O)c1nc2nccc(C)n2n1" on Falciformispora senegalensis CBS197.79?
[reply] 90

[ask] What measured growth is associated with O=C(NC1CCCc2c1[nH]c1ccc(Cl)cc21)c1ccccn1 (stereo unspecified) on Falciformispora senegalensis CBS197.79?
[reply] 103

[ask] What measured growth is associated with "O=C(NC1CCN(CCOc2ccc(Cl)cc2)CC1)c1c[nH]c2ccncc2c1=O" on Falciformispora senegalensis CBS197.79?
[reply] 84.8

[ask] What measured growth is associated with "CCN1CCN(Cc2ccc(Nc3ncc(F)c(-c4cc(F)c5nc(C)n(C(C)C)c5c4)n3)nc2)CC1" on Falciformispora senegalensis CBS197.79?
[reply] 105

[ask] What measured growth is associated with "Cc1nn(C)c(Oc2ccccc2)c1C=NOCc1ccc(C(=O)OC(C)(C)C)cc1" on Falciformispora senegalensis CBS197.79?
[reply] 89

[ask] What measured growth is associated with "CC(C)C[C@H](NC(=O)[C@@H](NC(=O)c1cccc(-c2ccccc2)n1)[C@@H](C)O)B(O)O" on Falciformispora senegalensis CBS197.79?
[reply] 99

[ask] What measured growth is associated with "O=C1NCCN1CCN1CCC(c2cn(-c3ccc(F)cc3)c3ccc(Cl)cc23)CC1" on Falciformispora senegalensis CBS197.79?
[reply] 19.4

[ask] What measured growth is associated with "CCS(=O)(=O)N1CC(CC#N)(n2cc(-c3ncnc4[nH]ccc34)cn2)C1" on Falciformispora senegalensis CBS197.79?
[reply] 104

[ask] What measured growth is associated with "FC(F)(F)c1cc(Nc2nc3cnc(NCC4CC4)nc3n2C2CCNCC2)cc(C(F)(F)F)c1" on Falciformispora senegalensis CBS197.79?
[reply] 20.9

[ask] What measured growth is associated with "C[C@H]1O[C@@H](O[C@H]2[C@@H](O)C[C@H](O[C@H]3[C@@H](O)C[C@H](O[C@H]4CC[C@@]5(C)[C@H](CC[C@@H]6[C@@H]5CC[C@]5(C)[C@@H](C7=CC(=O)OC7)CC[C@]65O)C4)O[C@@H]3C)O[C@@H]2C)C[C@H](O)[C@@H]1O" on Falciformispora senegalensis CBS197.79?
[reply] 98

[ask] What measured growth is associated with "CCO[C@@H]1[C@@H](OC)[C@H](C)O[C@@H](O[C@@H]2C[C@H]3CC[C@@H]4[C@@H](C=C5C(=O)[C@H](C)[C@@H](O[C@H]6CC[C@H](N(C)C)[C@@H](C)O6)CCC[C@H](CC)OC(=O)C[C@H]54)[C@@H]3C2)[C@@H]1OC" on Falciformispora senegalensis CBS197.79?
[reply] 85.7

[ask] What measured growth is associated with "O=C(c1ccc(Nc2nccc(-c3ccc(Cl)cc3)n2)cc1)N1CC[C@@H](CO)C1" on Falciformispora senegalensis CBS197.79?
[reply] 89.6

[ask] What measured growth is associated with "COc1cc(OC)c2c(O)nc(-c3cc(C)c(OCCO)c(C)c3)nc2c1" on Falciformispora senegalensis CBS197.79?
[reply] 97.6

[ask] What measured growth is associated with "Nc1nc(NC2CC2)c2ncn([C@H]3C=C[C@@H](CO)C3)c2n1" on Falciformispora senegalensis CBS197.79?
[reply] 107

[ask] What measured growth is associated with "Cn1c(O)nnc1Cn1ccc(C(F)(F)F)c(Oc2cc(Cl)cc(C#N)c2)c1=O" on Falciformispora senegalensis CBS197.79?
[reply] 106

[ask] What measured growth is associated with "C[C@@H](C1CCCCC1)n1c(-c2cc3c(cc2Br)OCO3)nc2cc(C(=O)Nc3ccc(C#N)cc3)ccc21" on Falciformispora senegalensis CBS197.79?
[reply] 102

Hey, just so you know, these numbers are from the supplement of paper PMC11172423.
